# Tested on: MS2 coat protein
# METHOD_DESCRIPTION: apparent KD of MS2 coat protein; designed switch direction (-1 OFF switch, 1 ON switch): -1; higher = weaker reporter binding
# SETUP_CONDITIONS: input ligand: none
QUANTITY_KIND: apparent KD of MS2 coat protein (nM)
Respond numerically; units are nM and should not be typed.

Example entries and their recorded answers appear below.
{"columns": ["SEQUENCE_ENTRY", "TESTED_SYSTEM", "apparent KD of MS2 coat protein [nM]"],
 "data": [
  ["ACAAGCUUUACGAUCCUCAACAUGAGGAUCACCCAUGUGCUCGUAUUGUUUAGUACUAUCACGAAAGUGAUAGUACA [Sensor, turn off variant 1 v.6] (Eterna round: R97, puzzle: Sensor, turn-off variant 1)", "MS2 coat protein", 943],
  ["AGUUAGAUAGGAUAUGCCCGAGAUAACAUGAGGAUCACCCAUGUGACCGAGUCUAUUCUAGCAGAAGGGUUUAUGA [Mod of ViennaUCT 20 - Jieux - Exclusion 5] (Eterna round: R97, puzzle: Exclusion 5)", "MS2 coat protein", 18.3],
  ["GUCGUGCGGCAGUGCUGUACGAGUACAUGAGGAUCACCCAUGUAGGAUAUGGUUCGUUUUGCGUGCUAGAAGGGCGUGCGUUGG [Excl-NG3-LRO21] (Eterna round: R96, puzzle: Exclusion NG 3)", "MS2 coat protein", 21.4]
]}

// next item, apparent KD of MS2 coat protein requested
Q) Give its apparent KD of MS2 coat protein value. Item: GCGCCAUCGUGAGAUGGCGUAUAUACAUGAGGAUCACCCAUGUAGGAUAUCGAUUGCUUUGCAGUCGAGAAGGGCGUGAUAAUU [JL ENG3 3.69] (Eterna round: R96, puzzle: Exclusion NG 3)
A) 82

###

# Tested on: MS2 coat protein
# METHOD_DESCRIPTION: apparent KD of MS2 coat protein; designed switch direction (-1 OFF switch, 1 ON switch): 1; higher = weaker reporter binding
# SETUP_CONDITIONS: input ligand: FMN 200 uM
QUANTITY_KIND: apparent KD of MS2 coat protein (nM)
Provide only the numeric value, understood in nM.

{"columns": ["SEQUENCE_ENTRY", "TESTED_SYSTEM", "apparent KD of MS2 coat protein [nM]"],
 "data": [
  ["ACAUGAGACCUAGGAUAUCUUGUACCUACAUGUGACAUGAGGAUCACCCAUGUGGUAAGUAUGAUAGAGAAGGAGGAGAUAUGU [Equivalance 55 - Jieux - Same State NG 2] (Eterna round: R96, puzzle: Same State NG 2)", "MS2 coat protein", 15.6],
  ["CCAUAACGGUGAGGAUAUCGUUGCGAUAAGUGACGAGAAGGCAUUCAUGUGAAAUAAACAUACAUGAGGAUCACCCAUGUUGUA [Omei SS(NG)1 Bv1] (Eterna round: R96, puzzle: Same State NG 1)", "MS2 coat protein", 23.7],
  ["AGAUGUUAAUCAGGAUAUGGGCACAUGAGGAUCACCCAUGUAUUUUCGAUGCUAUGUGGAGACGUCUAGAAGGGAUGGCUAACA [SameState NG2 #86] (Eterna round: R96, puzzle: Same State NG 2)", "MS2 coat protein", 165],
  ["GAGGGACAGACCAACAUGAGGAUCACCCAUGUCCUCGCAGGUCAGGAUAUUAUUAGGAUCACCAGUGAGAAGGGACGGUGAACC (Eterna round: R96, puzzle: Same State NG 3)", "MS2 coat protein", 755]
]}

Q) Which apparent KD of MS2 coat protein is reported for this sequence? CCGCCGGGAACCCGGCGAAAACAUGAGGAUCACCCAUGUACACAGGAUAUCGUGACAUUAACAAACGAGAAGGGUGGCCGAGAC [Lelateen] (Eterna round: R96, puzzle: Same State NG 3)
A) 453

Q) // repeat for UGGUACAUGGGAGGAUAUCAUGUAGACACAUGAGGAUCACCCAUGUCGAUGGAGACAUCGGAGAUUGAGAAGGCCCAUGUACCU [JL SSNG1 3.55] (Eterna round: R96, puzzle: Same State NG 2) and report
A) 18.6

Q) And then UAUUUAAUCGUAGGAUAUAGAGUGAAAUUUGUACUAGAAGGACGUAACAUGAGGAUCACCCAUGUGGUAAGUGGGACAUAGUAU [JR_SSNG1_Sub037] (Eterna round: R96, puzzle: Same State NG 1) , what is it?
A) 44.1

Q) # iterate: GGUAUCGGCACAGGAUAUGCUAUCCUUUGGGUAGCAGAAGGGUGAACAUGAGGAUCACCCAUGUAGGUGCCAGGGCGUGAGCCC [JL SSNG1 1.80] (Eterna round: R96, puzzle: Same State NG 1)
A) 213

Q) And then GAGAGAGGGUGAGGAUAUAGAGUAAUAAUGAUACUAGAAGGCACAGACAUGAGGAUCACCCAUGUGGGAAUAAUCCAGAGAGAG [Parity 5 - Jieux - Same State NG 1] (Eterna round: R96, puzzle: Same State NG 1) , what is it?
A) 300

###

# Test system: MS2 coat protein
# METHOD_DESCRIPTION: apparent KD of MS2 coat protein; designed switch direction (-1 OFF switch, 1 ON switch): -1; higher = weaker reporter binding
# SETUP_CONDITIONS: input ligand: none
Measured apparent KD of MS2 coat protein values are reported for all entries that follow.
Numeric only. Scale: nM

Some entries whose results are on file:
{"columns": ["SEQUENCE_ENTRY", "VALUE_UNITS", "apparent KD of MS2 coat protein"],
 "data": [
  ["AGCUAAAUAGGAUAUGCCCGGGAUAACAUGAGGAUCACCCAUGUGACCGAUUCAUGUCCUGCAGAAGGGUUUGGGA [Mod of ViennaUCT 6 - Jieux - Exclusion 5] (Eterna round: R97, puzzle: Exclusion 5)", "nM", 13.5],
  ["UGUUGUUCAGGAUAUGGUGUGUUGUACAUGAGGAUCACCCAUGUGGGUCCUGGUUUGGCGUCAGAAGGGAAUGUUG [salish99_ex5_r4_118] (Eterna round: R97, puzzle: Exclusion 5)", "nM", 778],
  ["AUAUGUGCGAGAGGAUAUCGUGUACAAAGUACACGAGAAGGCUUCACAUGAGGAUCACCCAUGUACCGAGGUGAAACACCUUGA [Omei Exc(NG)1 Bv5] (Eterna round: R96, puzzle: Exclusion NG 1)", "nM", 234],
  ["GUCAGCUCGUCAGGAUAUAUAUUAACAUGAGGAUCACCCAUGUAAGAUCAGCUUCGGCAGUUAAUAUAGAAGGGACGAGCUGAC [ENG2/14-B1] (Eterna round: R96, puzzle: Exclusion NG 2)", "nM", 153]
]}

In the following, a different sequence is considered.
Q) Entry AACAGUCUGGAGGAUAUGCUGGAUAAAUAUCUGGCAGAAGGCUGGACAUGAGGAUCACCCAUGUAAAUACUACC [Omei Ex6 A2b] (Eterna round: R97, puzzle: Exclusion 6) has what apparent KD of MS2 coat protein?
A) 24.9

###

# Test system: K4 kissing-loop RNA reporter;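 further: bound reporter read as fluorescence of individual clusters on recovered sequencing chips by microscopy, with normalized cluster intensities fitted with a binding model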
# METHOD_DESCRIPTION: apparent KD of K4 kissing-loop reporter; higher = weaker reporter binding
# SETUP_CONDITIONS: Eterna round: R107; input ligand: tryptophan 2.4 mM
In this section we review reported apparent KD of K4 kissing-loop reporter values for a set of sequences.
Kindly provide the numeric value in nM only, without the unit symbol.

{"columns": ["SEQUENCE_ENTRY", "TEST_VALUE"],
 "data": [
  ["AGACUUCACCGAAGGAGCGACGUAGCCUAGUGAUGUUAGGCGCGAGAGAAAUCUCGUAUACGUCAGGUAGGUCGCGGUGAAGUCA [Omei KL Arginine B SS C v4]", 146]
]}

Q) Requested read-out: apparent KD of K4 kissing-loop reporter. Entry: CCAUCGCUAUUCGAUACCAGUCAUUUUUUAUUUUUUUUUUUUUUUGGAGUGAUGUUCCAAGACCCUUGGCAGCGAAUAGUGAUGG [whbob_SS_Theo_B_th77]
A) 68.1

###

# Test system: MS2 coat protein
# METHOD_DESCRIPTION: apparent KD of MS2 coat protein; designed switch direction (-1 OFF switch, 1 ON switch): -1; higher = weaker reporter binding
# SETUP_CONDITIONS: Eterna round: R95; input ligand: microRNA oligo, concentration not stated
Output True for apparent KD of MS2 coat protein not less than 30 nM; output False otherwise.

{"columns": ["SEQUENCE_ENTRY", "CLASS_ASSIGNMENT"],
 "data": [
  ["UUAUAUAGUGUGAGGAUAUGCUGGUCCUUGGAUCAGCAGAAGGCACAUGAGGAUCACCCAUGUAGUUUAUUUUA [JL bmx4 3.01] (puzzle: Brourd's mod of Exclusion 4)", "False"],
  ["UGAUCUUUUGUUAGGAUAUGCUGUUUUUUUUUUCAGCAGAAGGGACAUGAGGAUCACCCAUGUUUUGUCAUAAA [Magic-06] (puzzle: Brourd's mod of Exclusion 4)", "False"],
  ["GGGUGUGAAGGAUAUACAUGAGGAUCACCCAUGUGAGAGGAGAAUGUUGAGGAGGUUGGUAGAAGGUCAGGAGG [JR_Exclusion3_Sub010] (puzzle: Exclusion 3)", "True"],
  ["UGGUAACAUGAGGAUCACCCAUGUCAGGAUAUCAGGAAGAGGAGAGGAGAGGAGAAGAUGAGAAGGGACUAUAU [Excluse me! 12 - Jieux - Exclusion 1] (puzzle: Exclusion 1)", "False"]
]}

Q) Evaluate CACAAGCUUUUUUGAUGCAUUUUAGUGGGUGUGGGUUGGACAUGAGGAUCACCCAUGUUUAUGAAGCUCGAUCUUUU [JR_SV3TOV2_Sub081] (puzzle: Sensor v3, turn-off variant 2) : apparent KD of MS2 coat protein at minimum 30 nM?
A) True
